# System: CYP2C9
# experimental-details: Selectivity index, ratio of IC50 for CYP2C9 (unknown origin) to EC50 for blood stream form Trypanosoma brucei
# Assay type: toxicity
# condition: read-out: Ratio IC50/EC50
property-measured: selectivity ratio
API doc: respond with a numeric literal and nothing else, no unit.

{"columns": ["molecule", "val"],
 "data": [
  ["Nc1nc(N)c(C(C[N+](=O)[O-])c2ccccc2OCc2ccc(Cl)c(Cl)c2)c(N)n1 (configuration not stated)", 11]
]}

Now consider a different molecule.
Q: State its selectivity ratio for this molecule: Nc1nc(N)c(C(C[N+](=O)[O-])c2csc3ccccc23)c(N)n1 (configuration not stated)
Result: 271
